GI50 values, listed per item
# System: HOP-92 NSCLC
# Assay Overview: NCI tumour cell line growth inhibition, 48 h

[
  {
    "Molecule": "COc1ccc(/C=C(\\C#N)c2cc(OC)c3c(c2)OCO3)cc1",
    "GI50": "8.09 µM"
  },
  {
    "Molecule": "Clc1cc(Cl)cc(N2N=C(c3cccc(Nc4ccncc4)c3)CC2c2ccc(Br)cc2)c1 (configuration not stated)",
    "GI50": "1.48 µM"
  }
]

May I ask what GI50 has been recorded for CC[O-].CC[O-].O=Nc1ccc2cc([O-])ccc2c1.O=Nc1ccc2cc([O-])ccc2c1.[Ti+4] ? 1.96 µM

May I ask what GI50 has been recorded for COc1ccc(C2=C(c3cn(C)c4ccccc34)C(=O)NC2=O)cc1OC ? > 12.4 µM

May I ask what GI50 has been recorded for CCOC(=O)[C@@H](C)C[C@H](Cc1ccccc1)NC(=O)c1csc([C@@H](C[C@H](C(C)C)N(C)C(=O)[C@H](CCC(C)C)NC(=O)[C@H]2CCCCN2C)OC(C)=O)n1 ? 0.658 µM

May I ask what GI50 has been recorded for Cc1cc(S(=O)(=O)NC#N)c(S/C(=N\Nc2ccc([N+](=O)[O-])cc2)c2ccccc2)cc1Cl ? 10.7 µM

May I ask what GI50 has been recorded for CN(/N=N/c1nc(OCc2ccccc2)c2[nH]cnc2n1)C(=O)N(C)/N=N/c1nc(OCc2ccccc2)c2[nH]cnc2n1 ? 29.9 µM

---

# Test system: UO-31 renal
# Assay Overview: NCI tumour cell line growth inhibition, 48 h
Property Measured: TGI

[
  {
    "Compound": "OCCCN(CCc1ccc(Cl)c(Cl)c1)CCN1CCCC1",
    "Val": "> 100 µM"
  },
  {
    "Compound": "C=CCOc1ccc(C2c3c([nH][nH]c3=O)CC(C)(O)C2C(=O)OC)cc1OC (stereo unspecified)",
    "Val": "> 100 µM"
  },
  {
    "Compound": "COc1ccccc1/C=C1/Sc2scc(CC(=O)Nc3ccccc3)[n+]2C1=O",
    "Val": "70.7 µM"
  }
]

May I ask what TGI has been recorded for COc1ccc(/C=N/n2c(C)n[nH]c2=O)cc1 ? > 100 µM

---

# System: PC-3 prostate
# Assay Overview: NCI tumour cell line growth inhibition, 48 h
*1 amine or outer side, *2 acyl side, *3 side chain or, on linkers, in order; H or OH if unused. Where a SMILES comes first, the peptide text is derived from it. Bridges are numbered along the chain shown (N, C = ends). [ ]: non-standard residue; d: D form. The star is where a group is joined. Phe(3-Me) = Cc1cccc(C[C@H](N)C(=O)O)c1; NH(4-Cl-2-F-phenyl) = Fc1cc(Cl)ccc1N*; Pro(4R-Me) = C[C@H]1CN[C@H](C(=O)O)C1; Hyp = O=C(O)[C@@H]1C[C@@H](O)CN1; aThr = C[C@H](O)[C@H](N)C(=O)O; Pip = O=C(O)[C@@H]1CCCCN1; CO = O=C([*:1])[*:2]
TGI values, listed per item

[
  {
    "Molecule": "O/N=C1\\CC2(N3CCOCC3)CCC1(Cc1ccccc1)CC2",
    "TGI": "> 100 µM"
  },
  {
    "Molecule": "COC(=O)c1cc(C)ccc1CC(Cc1ccccc1C)C(=O)OC (stereo not given)",
    "TGI": "> 100 µM"
  },
  {
    "Molecule": "N#CC(C#N)=CN1CCN(C(=O)c2ccccc2)C1=S",
    "TGI": "> 100 µM"
  },
  {
    "Molecule": "C#CCSc1cnc2ccccc2c1Sc1c[nH]c2ccccc2c1=O",
    "TGI": "> 100 µM"
  },
  {
    "Molecule": "c1ccc2c(Cc3c[nH]c4ccccc34)c[nH]c2c1",
    "TGI": "38.3 µM"
  },
  {
    "Molecule": "NC(=NC1CCCCCC1)c1ccc(N2CCN(c3ccc(C(N)=NC4CCCCCC4)cc3)CC2)cc1",
    "TGI": "> 50 µM"
  },
  {
    "Molecule": "CC1(C)OC[C@@]2([C@@H]3CC[C@@H](C3)C2(C)C)N1O",
    "TGI": "> 100 µM"
  },
  {
    "Molecule": "O=S(=O)(NC(c1ccccc1)(c1cc2ccccc2[nH]1)c1cc2ccccc2n1S(=O)(=O)c1ccccc1)c1ccccc1 (stereo not given)",
    "TGI": "> 100 µM"
  }
]

Missing value: TGI, PC-3 prostate, entry N#CSCC1CC(O)(c2ccccc2)C(c2ccccc2)C(c2ccc(F)cc2)O1 (stereo not given) . Fill in? 11.3 µM

Missing value: TGI, PC-3 prostate, entry Cc1cccc(C[C@H](NC(=O)Nc2ccc(Cl)cc2F)C(=O)N[C@@H]2C(=O)N3C[C@H](O)C[C@H]3C(=O)N3CCCC[C@H]3C(=O)N[C@@H](C)C(=O)N3C[C@H](C)C[C@H]3C(=O)O[C@H]2C)c1 ({NH(4-Cl-2-F-phenyl)-CO}-[Phe(3-Me)][aThr][Hyp][Pip]A[Pro(4R-Me)]; ester 2-C) . Fill in? 1.85 µM
